# Test system: 354836-022-R-J1-PDC multicell spheroid viability
# test name: Anticancer human tumor 354836-022-R-J1-PDC patient-derived head and neck squamous cell carcinoma cell line growth inhibition [PI3K]
# condition context: second compound 10 µM; first compound 0.1 µM; stronger effect = lower value
# class assignment by measured viability, T/C: class A = under 30%, class B = from 30% up to 40%, class C = 40% and over

Check out these entries, answers already filled in.
>  <compound>
Cn1nccc1Nc1nccc(-c2ccn(C(CO)c3ccc(Cl)c(F)c3)c(=O)c2)n1 (stereo unspecified) + CC(Nc1ncnc2nc[nH]c12)c1cc2cccc(Cl)c2c(=O)n1-c1ccccc1

>  <qualitative label>
class C

$$$$
>  <compound>
CC1(C)CCC(Nc2ncc(C(F)(F)F)c(-c3c[nH]c4c(P(C)(C)=O)c(C#N)ccc34)n2)CN1 (stereo unspecified) + CC(Nc1ncnc2nc[nH]c12)c1cc2cccc(Cl)c2c(=O)n1-c1ccccc1

>  <qualitative label>
class A

$$$$
>  <compound>
C#Cc1c(F)ccc2cc(O)cc(-c3ncc4c(N5CC6CCC(C5)N6)nc(OCC56CCCN5CC(F)C6)nc4c3F)c12 (stereo unspecified) + Cc1nc(NC(=O)N2CCCC2C(N)=O)sc1-c1ccnc(C(C)(C)C(F)(F)F)c1

>  <qualitative label>
class B

$$$$
>  <compound>
CC1(C)CCC(CN2CCN(c3ccc(C(=O)NS(=O)(=O)c4ccc(NCC5CCOCC5)c([N+](=O)[O-])c4)c(Oc4cnc5[nH]ccc5c4)c3)CC2)=C(c2ccc(Cl)cc2)C1 + CC(Nc1ncnc2nc[nH]c12)c1cc2cccc(Cl)c2c(=O)n1-c1ccccc1

>  <qualitative label>
class C

$$$$
>  <compound>
CNC(=O)c1ccc(N2C(=S)N(c3ccc(C#N)c(C(F)(F)F)c3)C(=O)C2(C)C)cc1F + Cc1nc(NC(=O)N2CCCC2C(N)=O)sc1-c1ccnc(C(C)(C)C(F)(F)F)c1

>  <qualitative label>
class B

$$$$
>  <compound>
CC(C)n1nc(-c2ccc3oc(N)nc3c2)c2c(N)ncnc21 + CC(Nc1ncnc2nc[nH]c12)c1cc2cccc(Cl)c2c(=O)n1-c1ccccc1

>  <qualitative label>
class A

$$$$

Any idea which band Cn1nccc1Nc1nccc(-c2ccn(C(CO)c3ccc(Cl)c(F)c3)c(=O)c2)n1 (stereo unspecified) + Cc1nc(NC(=O)N2CCCC2C(N)=O)sc1-c1ccnc(C(C)(C)C(F)(F)F)c1 is in?
class C

Any idea which band CC(C)n1nc(-c2ccc3oc(N)nc3c2)c2c(N)ncnc21 + Cc1nc(NC(=O)N2CCCC2C(N)=O)sc1-c1ccnc(C(C)(C)C(F)(F)F)c1 is in?
class A

----------
# Tested on: 354836-022-R-J1-PDC multicell spheroid viability
# test name: Anticancer human tumor 354836-022-R-J1-PDC cell line growth inhibition [PI3K];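 note: spheroids exposed to agents for seven days before the viability read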
# condition context: second compound 0.316 µM; first compound 0.316 µM; stronger effect = lower value
measurement kind: viability, T/C (%)
I only need the number, in %, no unit after it.

Worked cases, viability, T/C given:
>  <compound>
CNC(=O)c1ccc(N2C(=S)N(c3ccc(C#N)c(C(F)(F)F)c3)C(=O)C2(C)C)cc1F + CC(Nc1ccc2c(c1)OCCn1cc(N3C(=O)OCC3C(F)F)nc1-2)C(N)=O

>  <viability, T/C (%)>
74.1

$$$$
>  <compound>
Cn1ncc(Cl)c1-c1cc(C(=O)NC(CN)Cc2cccc(F)c2)sc1Cl (stereo not given) + CC(Nc1ccc2c(c1)OCCn1cc(N3C(=O)OCC3C(F)F)nc1-2)C(N)=O

>  <viability, T/C (%)>
30.7

$$$$
>  <compound>
CCCS(=O)(=O)Nc1ccc(F)c(C(=O)c2c[nH]c3ncc(-c4ccc(Cl)cc4)cc23)c1F + Cc1nc(NC(=O)N2CCCC2C(N)=O)sc1-c1ccnc(C(C)(C)C(F)(F)F)c1

>  <viability, T/C (%)>
75.2

$$$$
>  <compound>
CCCS(=O)(=O)Nc1ccc(F)c(C(=O)c2c[nH]c3ncc(-c4ccc(Cl)cc4)cc23)c1F + COc1c(OCCCN2CCOCC2)ccc2c3n(c(=NC(=O)c4cnc(N)nc4)nc12)CCN3

>  <viability, T/C (%)>
12.3

$$$$

# input for lookup
# return recorded viability, T/C for input CC1(C)CCC(CN2CCN(c3ccc(C(=O)NS(=O)(=O)c4ccc(NCC5CCOCC5)c([N+](=O)[O-])c4)c(Oc4cnc5[nH]ccc5c4)c3)CC2)=C(c2ccc(Cl)cc2)C1 + Cc1nc(NC(=O)N2CCCC2C(N)=O)sc1-c1ccnc(C(C)(C)C(F)(F)F)c1
79.5

----------
# Test system: 354836-022-R-J1-PDC multicell spheroid viability
# test name: Anticancer human tumor 354836-022-R-J1-PDC cell line growth inhibition [PI3K];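 note: spheroids exposed to agents for seven days before the viability read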
# condition context: second compound 0.01 µM; first compound 0.1 µM; stronger effect = lower value
Each entry below carries its recorded viability, T/C.
I only need the number, in %, no unit after it.

>  <compound>
CCCS(=O)(=O)Nc1ccc(F)c(C(=O)c2c[nH]c3ncc(-c4ccc(Cl)cc4)cc23)c1F + CC(Nc1ccc2c(c1)OCCn1cc(N3C(=O)OCC3C(F)F)nc1-2)C(N)=O

>  <measured on>
354836-022-R-J1-PDC multicell spheroid viability

>  <unit>
%

>  <endpoint result>
93.2

$$$$
>  <compound>
CC1(C)CCC(Nc2ncc(C(F)(F)F)c(-c3c[nH]c4c(P(C)(C)=O)c(C#N)ccc34)n2)CN1 (stereo not given) + CC(Nc1ccc2c(c1)OCCn1cc(N3C(=O)OCC3C(F)F)nc1-2)C(N)=O

>  <measured on>
354836-022-R-J1-PDC multicell spheroid viability

>  <unit>
%

>  <endpoint result>
18.5

$$$$
>  <compound>
C=CC(=O)N1CCN(c2nc(=O)n(-c3c(C)ccnc3C(C)C)c3nc(-c4c(O)cccc4F)c(F)cc23)C(C)C1 (stereo not given) + COc1c(OCCCN2CCOCC2)ccc2c3n(c(=NC(=O)c4cnc(N)nc4)nc12)CCN3

>  <measured on>
354836-022-R-J1-PDC multicell spheroid viability

>  <unit>
%

>  <endpoint result>
99

$$$$
>  <compound>
CC(C)NCC(C(=O)N1CCN(c2ncnc3c2C(C)CC3O)CC1)c1ccc(Cl)cc1 (stereo not given) + COc1c(OCCCN2CCOCC2)ccc2c3n(c(=NC(=O)c4cnc(N)nc4)nc12)CCN3

>  <measured on>
354836-022-R-J1-PDC multicell spheroid viability

>  <unit>
%

>  <endpoint result>
66.5

$$$$

# input for lookup
# return recorded viability, T/C for input Cn1nccc1Nc1nccc(-c2ccn(C(CO)c3ccc(Cl)c(F)c3)c(=O)c2)n1 (stereo not given) + COc1c(OCCCN2CCOCC2)ccc2c3n(c(=NC(=O)c4cnc(N)nc4)nc12)CCN3
99

----------
# Test system: 354836-022-R-J1-PDC multicell spheroid viability
# test name: Anticancer human tumor 354836-022-R-J1-PDC cell line growth inhibition [PI3K];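 note: spheroids exposed to agents for seven days before the viability read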
# condition context: second compound 0.01 µM; first compound 0.1 µM; stronger effect = lower value
hey, just use yes if measured viability, T/C is less than 70%, otherwise no

>  <molecule>
Cn1ncc(Cl)c1-c1cc(C(=O)NC(CN)Cc2cccc(F)c2)sc1Cl (stereo not given) + CC(Nc1ccc2c(c1)OCCn1cc(N3C(=O)OCC3C(F)F)nc1-2)C(N)=O

>  <measured on>
354836-022-R-J1-PDC multicell spheroid viability

>  <qualitative label>
yes

$$$$
>  <molecule>
CC1(C)CCC(CN2CCN(c3ccc(C(=O)NS(=O)(=O)c4ccc(NCC5CCOCC5)c([N+](=O)[O-])c4)c(Oc4cnc5[nH]ccc5c4)c3)CC2)=C(c2ccc(Cl)cc2)C1 + COc1c(OCCCN2CCOCC2)ccc2c3n(c(=NC(=O)c4cnc(N)nc4)nc12)CCN3

>  <measured on>
354836-022-R-J1-PDC multicell spheroid viability

>  <qualitative label>
no

$$$$
>  <molecule>
Cn1ncc(Cl)c1-c1cc(C(=O)NC(CN)Cc2cccc(F)c2)sc1Cl (stereo not given) + COc1c(OCCCN2CCOCC2)ccc2c3n(c(=NC(=O)c4cnc(N)nc4)nc12)CCN3

>  <measured on>
354836-022-R-J1-PDC multicell spheroid viability

>  <qualitative label>
no

$$$$

Criterion: viability, T/C strictly below 70%. Is it met by Cn1nccc1Nc1nccc(-c2ccn(C(CO)c3ccc(Cl)c(F)c3)c(=O)c2)n1 (stereo not given) + CC(Nc1ccc2c(c1)OCCn1cc(N3C(=O)OCC3C(F)F)nc1-2)C(N)=O ?
no

----------
# Tested on: 354836-022-R-J1-PDC multicell spheroid viability
# test name: Anticancer human tumor 354836-022-R-J1-PDC cell line growth inhibition [PI3K];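 note: spheroids exposed to agents for seven days before the viability read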
# condition context: second compound 3.16 µM; first compound 10 µM; stronger effect = lower value
measurement kind: viability, T/C

>  <compound>
Cn1nccc1Nc1nccc(-c2ccn(C(CO)c3ccc(Cl)c(F)c3)c(=O)c2)n1 (configuration not stated) + Cc1nc(NC(=O)N2CCCC2C(N)=O)sc1-c1ccnc(C(C)(C)C(F)(F)F)c1

>  <endpoint result>
50.1%

$$$$
>  <compound>
CC(C)NCC(C(=O)N1CCN(c2ncnc3c2C(C)CC3O)CC1)c1ccc(Cl)cc1 (configuration not stated) + Cc1nc(NC(=O)N2CCCC2C(N)=O)sc1-c1ccnc(C(C)(C)C(F)(F)F)c1

>  <endpoint result>
6.1%

$$$$
>  <compound>
CCCS(=O)(=O)Nc1ccc(F)c(C(=O)c2c[nH]c3ncc(-c4ccc(Cl)cc4)cc23)c1F + CC(Nc1ncnc2nc[nH]c12)c1cc2cccc(Cl)c2c(=O)n1-c1ccccc1

>  <endpoint result>
21.1%

$$$$
>  <compound>
C[C@@H](NC(=O)c1ncnc(N)c1Cl)c1ncc(C(=O)Nc2cc(C(F)(F)F)c(Cl)cn2)s1 + CC(Nc1ncnc2nc[nH]c12)c1cc2cccc(Cl)c2c(=O)n1-c1ccccc1

>  <endpoint result>
68.9%

$$$$
>  <compound>
CC1(C)CCC(Nc2ncc(C(F)(F)F)c(-c3c[nH]c4c(P(C)(C)=O)c(C#N)ccc34)n2)CN1 (configuration not stated) + CC(Nc1ncnc2nc[nH]c12)c1cc2cccc(Cl)c2c(=O)n1-c1ccccc1

>  <endpoint result>
1.2%

$$$$

# return recorded viability, T/C for input C#Cc1c(F)ccc2cc(O)cc(-c3ncc4c(N5CC6CCC(C5)N6)nc(OCC56CCCN5CC(F)C6)nc4c3F)c12 (configuration not stated) + Cc1nc(NC(=O)N2CCCC2C(N)=O)sc1-c1ccnc(C(C)(C)C(F)(F)F)c1
55.7%

# return recorded viability, T/C for input CC(C)NCC(C(=O)N1CCN(c2ncnc3c2C(C)CC3O)CC1)c1ccc(Cl)cc1 (configuration not stated) + CC(Nc1ncnc2nc[nH]c12)c1cc2cccc(Cl)c2c(=O)n1-c1ccccc1
4.48%
